- Test system: rat aorta preparations
- Assay: Vasorelaxant effect on rat aorta preparations: constriction induced by potassium chloride (KCl)
- Assay type: cell-based, Male Wistar rats
- Condition Description: 0.3 μM, KCl (80 mM), read-out: constriction inhibitory ratio
Result Type: inhibition at 0.3 µM (%)
Numbers only; they are read as %.

Q: Provide one value: measured inhibition at 0.3 µM of CC(C)(C)O/N=C(/c1cccc(Br)c1)c1ncccc1O
Result: 0

Q: Provide one value: measured inhibition at 0.3 µM of CC(C)(C)O/N=C(/c1cccc(C(F)(F)F)c1)c1ncccc1O
Result: 1

Q: Provide one value: measured inhibition at 0.3 µM of CC(C)(C)N/N=C(\c1cccc(Br)c1)c1ncccc1O
Result: 0

Q: Provide one value: measured inhibition at 0.3 µM of CC(C)(C)O/N=C(/c1cccc([N+](=O)[O-])c1)c1ncccc1O
Result: 0

Q: Provide one value: measured inhibition at 0.3 µM of CC(C)(C)O/N=C(/c1cccc(Br)c1)c1c(O)ccc[n+]1[O-]
Result: 0
